target: human orexin type 2 receptor (hOX2R) (Homo sapiens (Human)); assay: Measurement of orexin type 2 receptor agonist activity (Experimental Example 2-1, FLIPR TETRA, intracellular Ca2+); type: cell-based; details: CHO dhfr- cells expressing hOX2R, FLIPR TETRA, Fluo-4AM
Would you kindly list Emax (%) for each of these compounds?
Numbers only, in %.

Take a look at these entries with their results.
COC(=O)N1CCC[C@H](NS(C)(=O)=O)[C@@H]1CO[C@H]1CC[C@@H](c2ccccc2C(F)F)CC1 [Example 324]	95
COC(=O)N1CCC[C@H](NS(C)(=O)=O)[C@@H]1CO[C@H]1CC[C@@H](c2ccccc2C(F)F)CC1 (relative stereo) [Example 322]	71
CCNC(=O)N1CCC[C@H](NS(C)(=O)=O)[C@@H]1CO[C@H]1CC[C@@H](c2ccccc2C(F)(F)F)CC1	93
CC(=O)N1CCC[C@H](NS(C)(=O)=O)[C@@H]1CO[C@H]1CC[C@@H](c2cc(F)ccc2F)CC1	110

Turning now to a further record.
Query: Could you please provide reported Emax (%) for "CS(=O)(=O)N[C@H]1CCCN(C(=O)OCC(F)(F)F)[C@H]1COC1CCN(c2ncccn2)CC1" ? Thanks!
Result: 106

* * *

target: UniProt:O43614; experiment: Measurement of orexin type 2 receptor agonist activity (Experimental Example 2-2, FDSS uCELL, calcium indicator); assay type: cell-based; conditions: CHO cells expressing human OX2 receptor, Fluo-4 AM
pEC50: −log10 of the molar value.
Threshold rule: pEC50 greater than or equal to 7 is class 1; below that, class 0.

Solved cases (5 shown):
CNC(=O)N1CCC[C@H](NS(=O)(=O)C2CC2)[C@@H]1CO[C@H]1CC[C@@H](c2ccccc2)CC1 (relative stereo)	class 1
COC(=O)N1CCC[C@H](NS(C)(=O)=O)[C@@H]1CO[C@H]1CC[C@@H](c2ccccc2O)CC1 (relative stereo)	class 0
CCNC(=O)N1CCC[C@H](NS(C)(=O)=O)[C@@H]1CO[C@H]1CCC[C@@H]1Oc1ccccc1	class 0
O=S(=O)(N[C@H]1CCCN[C@H]1CO[C@H]1CC[C@@H](c2ccccc2)CC1)C1CC1 (relative stereo)	class 0
CC(OC(=O)N1CCC[C@H](NS(=O)(=O)C2CC2)[C@@H]1COC1CCN(c2ncccn2)CC1)C(F)(F)F (relative stereo)	class 0

Query: Dear colleague, could you confirm whether COC(=O)N1CCC[C@H](NS(C)(=O)=O)[C@@H]1CO[C@H]1CC[C@@H](c2ccc(O)cc2)CC1 [Example 348] has pEC50 at or above 7?
Result: class 1

Query: Dear colleague, could you confirm whether COC(=O)N1CCC[C@H](NS(C)(=O)=O)[C@@H]1CO[C@H]1CC[C@@H](c2ccc(OC)cc2)CC1 (relative stereo) has pEC50 at or above 7?
Result: class 0

Query: Dear colleague, could you confirm whether CC(=O)N1CCC[C@H](NS(=O)(=O)C2CC2)[C@@H]1CO[C@H]1CC[C@@H](c2ccccc2)CC1 (relative stereo) has pEC50 at or above 7?
Result: class 1

Query: Dear colleague, could you confirm whether CC(C)OC(=O)N1CCC[C@H](NS(=O)(=O)C2CC2)[C@@H]1COC1CCN(c2ncccn2)CC1 (relative stereo) has pEC50 at or above 7?
Result: class 1

Query: Dear colleague, could you confirm whether COC(=O)N1CCC[C@H](NS(C)(=O)=O)[C@@H]1CO[C@H]1CC[C@@H](c2ccc(O)cc2)CC1 (relative stereo) [Example 345] has pEC50 at or above 7?
Result: class 1

Query: Dear colleague, could you confirm whether O=C(OCC(F)(F)F)N1CCC[C@H](NS(=O)(=O)C2CC2)[C@@H]1COC1CCN(c2ncccn2)CC1 (relative stereo) has pEC50 at or above 7?
Result: class 0

Query: Dear colleague, could you confirm whether CCNC(=O)N1CCC[C@H](NS(=O)(=O)C2CC2)[C@@H]1CO[C@H]1CC[C@@H](c2ccccc2)CC1 (relative stereo) has pEC50 at or above 7?
Result: class 1

* * *

Would you kindly list Emax for each of these compounds?
molecular target: human orexin type 2 receptor (hOX2R) (Homo sapiens (Human)); assay: Measurement of orexin type 2 receptor agonist activity (Experimental Example 2-1, FLIPR TETRA, intracellular Ca2+); format: cell-based; settings: CHO dhfr- cells expressing hOX2R, FLIPR TETRA, Fluo-4AM; read-out: Emax (%)
Give bare numbers, in %.

Take a look at these entries with their results.
CC(=O)N1CCC[C@H](NS(C)(=O)=O)[C@@H]1CO[C@H]1CC[C@@H](c2ccccc2OC(F)(F)F)CC1 (relative stereo) [Example 293]	78
CC(C)C(=O)N1CCC[C@H](NS(C)(=O)=O)[C@@H]1COC1CCN(c2ccccc2F)CC1 (relative stereo) [Example 224]	90
CS(=O)(=O)N[C@H]1CCCN(C(=O)C2CC2)[C@H]1CO[C@H]1CC[C@@H](c2cccc(OC(F)(F)F)c2)CC1 (relative stereo) [Example 299]	90
CS(=O)(=O)N[C@H]1CCCN(C(=O)C2CCCCC2)[C@H]1COC1CCN(c2ncccn2)CC1 (relative stereo) [Example 208]	93
CS(=O)(=O)N[C@H]1CCCN(C(=O)C2CC2)[C@H]1COC1CCN(c2cc(F)ccc2Cl)CC1 (relative stereo) [Example 212]	89

Turning now to a further record.
Query: Could you please provide reported Emax for CS(=O)(=O)N[C@H]1CCCN(C(=O)C2CC2)[C@H]1CO[C@H]1CC[C@@H](c2ncccn2)CC1 (relative stereo) [Example 328] ? Thanks!
Result: 72

* * *

Would you kindly list Emax for each of these compounds?
target: human OX2 receptor (Homo sapiens (Human), UniProt O43614); assay: Measurement of orexin type 2 receptor agonist activity (Experimental Example 2-2, FDSS uCELL, calcium indicator); type: cell-based; details: CHO, CHO cells expressing human OX2 receptor, DMSO = 0%, reference OX-A at 10 nM
Sequence (O43614 whole entry): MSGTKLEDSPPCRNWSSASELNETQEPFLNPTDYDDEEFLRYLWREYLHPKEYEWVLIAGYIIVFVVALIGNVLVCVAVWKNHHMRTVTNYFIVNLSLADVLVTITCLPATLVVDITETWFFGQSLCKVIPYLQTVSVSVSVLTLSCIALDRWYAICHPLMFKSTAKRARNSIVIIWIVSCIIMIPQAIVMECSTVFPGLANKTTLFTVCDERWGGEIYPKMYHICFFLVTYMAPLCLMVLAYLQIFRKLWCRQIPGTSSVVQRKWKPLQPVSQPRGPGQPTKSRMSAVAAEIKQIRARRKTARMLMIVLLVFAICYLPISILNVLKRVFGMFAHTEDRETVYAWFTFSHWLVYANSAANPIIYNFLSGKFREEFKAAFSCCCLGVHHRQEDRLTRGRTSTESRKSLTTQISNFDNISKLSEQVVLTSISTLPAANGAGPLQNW
Give bare numbers, in %.

COC(=O)N1CCC[C@H](NS(C)(=O)=O)[C@@H]1CO[C@H]1CC[C@@H](c2ccc(OC)cc2)CC1 (relative stereo) [Example 344]	109
COC(=O)N1CCC[C@H](NS(C)(=O)=O)[C@@H]1CO[C@H]1CC[C@@H](c2ccccc2O)CC1 (relative stereo) [Example 347]	94
CC(C)OC(=O)N1CCC[C@H](NS(=O)(=O)C2CC2)[C@@H]1COC1CCN(c2ncccn2)CC1 (relative stereo) [Example 356]	98
CNC(=O)N1CCC[C@H](NS(=O)(=O)C2CC2)[C@@H]1CO[C@H]1CC[C@@H](c2ccccc2)CC1 (relative stereo) [Example 359]	97
CC(OC(=O)N1CCC[C@H](NS(=O)(=O)C2CC2)[C@@H]1COC1CCN(c2ncccn2)CC1)C(F)(F)F (relative stereo) [Example 362]	95
CCNC(=O)N1CCC[C@H](NS(=O)(=O)C2CC2)[C@@H]1CO[C@H]1CC[C@@H](c2ccccc2)CC1 (relative stereo) [Example 355]	108
O=S(=O)(N[C@H]1CCCN[C@H]1CO[C@H]1CC[C@@H](c2ccccc2)CC1)C1CC1 (relative stereo) [Example 353]	100
CC(=O)N1CCC[C@H](NS(=O)(=O)C2CC2)[C@@H]1CO[C@H]1CC[C@@H](C(C)C)CC1 (relative stereo) [Example 357]	101

Turning now to a further record.
Query: Could you please provide reported Emax for CCNC(=O)N1CCC[C@H](NS(C)(=O)=O)[C@@H]1CO[C@H]1CCC[C@@H]1Oc1ccccc1 [Example 350] ? Thanks!
Result: 116

* * *

Target: human orexin type 2 receptor (hOX2R) (Homo sapiens (Human), UniProt O43614)
Sequence (O43614 whole entry): as above
Assay: Measurement of orexin type 2 receptor agonist activity (Experimental Example 2-1, FLIPR TETRA, intracellular Ca2+)
Type: cell-based
Conditions: value at 30 uM concentration; orexin B as full agonist = 100%; CHO dhfr- cells expressing hOX2R
Source text: To obtain a cell clone stably expressing human orexin type 2 receptor, human orexin type 2 receptor cDNA was inserted into pcDNA3.1(+) plasmid vector (Invitrogen), and a plasmid DNA for expression of human orexin type 2 receptor (pcDNA3.1(+)/hOX2R) was cloned. The plasmid DNA was introduced into CHO-dhfr cell by an electroporation method, and human orexin type 2 receptor expressing clone cells were obtained by limiting dilution method by using G418 drug resistance as a selection marker. […]
ATTRIBUTE_MEASURED: Emax at 30 µM (%)
One number for each entry, in %.

Take a look at these entries with their results.
CS(=O)(=O)N[C@H]1CCCN(C(=O)C2COC2)[C@H]1CO[C@H]1CC[C@@H](c2ccccc2)CC1 (relative stereo)	96
CCOC(=O)N1CCC[C@H](NS(C)(=O)=O)[C@@H]1CO[C@H]1CC[C@@H](C(C)C)CC1 (relative stereo)	97
CCNC(=O)N1CCC[C@H](NS(C)(=O)=O)[C@@H]1CO[C@H]1CC[C@@H](C(C)C)CC1	99
CC(=O)N1CCC[C@H](NS(C)(=O)=O)[C@@H]1CO[C@H]1CC[C@@H](C2CCCCC2)CC1	83
COC(=O)N1CCC[C@H](NS(C)(=O)=O)[C@@H]1CO[C@H]1CC[C@@H](c2ccccc2C(F)(F)F)CC1	102
CCCC(=O)N1CCC[C@H](NS(C)(=O)=O)[C@@H]1CO[C@H]1CC[C@@H](C(C)C)CC1 (relative stereo)	99

Hi, could you look up Emax at 30 µM for each item in my list?
1. CS(=O)(=O)N[C@H]1CCCN[C@H]1CO[C@H]1CC[C@@H](c2cc(F)cc(F)c2)CC1
2. CCNC(=O)N1CCC[C@H](NS(C)(=O)=O)[C@@H]1CO[C@H]1C[C@@H](c2ccccc2)C1 (relative stereo)
3. CC(=O)N1CCC[C@H](NS(C)(=O)=O)[C@@H]1CO[C@H]1CC[C@@H](c2ccc(F)cc2)CC1 (relative stereo)
4. CC(C)OC(=O)N1CCC[C@H](NS(=O)(=O)N(C)C)[C@@H]1COC1CCN(c2ncccn2)CC1
5. CCNC(=O)N1CCC[C@H](NS(C)(=O)=O)[C@@H]1CO[C@H]1CC[C@@H](C(F)(F)F)CC1 (relative stereo)

Result:
1: 100; 2: 93; 3: 94; 4: 104; 5: 75
